The measured values listed here are drawn from ChEMBL document CHEMBL2057194.

# study_target: ATP-dependent translocase ABCB1 (Homo sapiens, UniProt P08183)
# Sequence (P08183 whole entry): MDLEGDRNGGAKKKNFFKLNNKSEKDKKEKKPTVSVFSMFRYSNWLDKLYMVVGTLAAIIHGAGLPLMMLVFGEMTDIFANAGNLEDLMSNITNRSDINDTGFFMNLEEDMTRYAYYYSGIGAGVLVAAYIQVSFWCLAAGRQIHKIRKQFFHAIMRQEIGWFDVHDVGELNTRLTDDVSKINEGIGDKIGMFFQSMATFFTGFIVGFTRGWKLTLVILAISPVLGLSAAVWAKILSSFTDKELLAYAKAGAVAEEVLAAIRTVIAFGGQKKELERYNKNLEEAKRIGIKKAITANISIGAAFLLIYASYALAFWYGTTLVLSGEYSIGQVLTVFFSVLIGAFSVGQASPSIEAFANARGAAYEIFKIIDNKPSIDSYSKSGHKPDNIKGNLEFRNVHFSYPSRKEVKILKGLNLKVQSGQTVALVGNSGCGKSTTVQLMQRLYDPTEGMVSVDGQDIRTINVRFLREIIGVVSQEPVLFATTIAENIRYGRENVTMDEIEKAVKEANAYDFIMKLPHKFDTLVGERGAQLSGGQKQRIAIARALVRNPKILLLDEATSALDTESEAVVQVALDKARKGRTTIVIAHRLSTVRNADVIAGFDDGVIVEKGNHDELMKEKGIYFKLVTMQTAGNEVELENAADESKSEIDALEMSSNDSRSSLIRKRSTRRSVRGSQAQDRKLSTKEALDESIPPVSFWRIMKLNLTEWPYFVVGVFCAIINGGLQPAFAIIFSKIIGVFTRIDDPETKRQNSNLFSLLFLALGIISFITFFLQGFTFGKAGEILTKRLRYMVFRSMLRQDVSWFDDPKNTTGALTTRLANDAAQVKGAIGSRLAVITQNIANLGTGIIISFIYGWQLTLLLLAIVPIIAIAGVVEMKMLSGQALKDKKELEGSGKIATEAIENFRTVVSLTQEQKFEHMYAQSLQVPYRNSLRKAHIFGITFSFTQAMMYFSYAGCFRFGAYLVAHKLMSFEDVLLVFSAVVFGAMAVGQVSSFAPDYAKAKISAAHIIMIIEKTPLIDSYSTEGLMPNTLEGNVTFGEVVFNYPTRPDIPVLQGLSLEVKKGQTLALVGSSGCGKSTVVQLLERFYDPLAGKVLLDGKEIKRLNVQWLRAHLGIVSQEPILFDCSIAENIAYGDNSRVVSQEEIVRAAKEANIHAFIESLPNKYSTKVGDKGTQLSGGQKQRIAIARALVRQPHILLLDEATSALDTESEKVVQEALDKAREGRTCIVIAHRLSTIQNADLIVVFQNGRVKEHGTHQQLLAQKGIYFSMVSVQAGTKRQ
# measurement_notes: Inhibition of P-glycoprotein-mediated daunorubicin efflux from human CCRF-CEM/VCR1000 cells after 240 secs by FACS flow cytometric analysis
# assay_setup: read-out: IC50
pIC50: −log10 of the molar value.
pIC50 below 6 gives Criterion not met; pIC50 at or above it gives Criterion met.

# molecule, cat
records = [
    ("O=C(c1ccccc1)c1cccc(OCC(O)CN2CCCCC2)c1 (stereo unspecified)", "Criterion not met"),
    ("Cc1ccccc1N1CCN(CC(O)COc2cccc(C(=O)c3ccccc3)c2)CC1 (stereo unspecified)", "Criterion met"),
    ("O=C(c1ccccc1)c1ccccc1OCC(O)CN1CCC(O)(c2ccccc2)CC1 (stereo unspecified)", "Criterion met"),
]

Is the recorded value of pIC50 equal to or greater than 6 for this molecule? O=C(c1ccccc1)c1ccc(OCC(O)CN2CCCCC2)cc1 (stereo unspecified)
Criterion not met
